# TARGET OR SYSTEM: mAC1 (Homo sapiens, UniProt Q08828)
# Sequence (Q08828 whole entry): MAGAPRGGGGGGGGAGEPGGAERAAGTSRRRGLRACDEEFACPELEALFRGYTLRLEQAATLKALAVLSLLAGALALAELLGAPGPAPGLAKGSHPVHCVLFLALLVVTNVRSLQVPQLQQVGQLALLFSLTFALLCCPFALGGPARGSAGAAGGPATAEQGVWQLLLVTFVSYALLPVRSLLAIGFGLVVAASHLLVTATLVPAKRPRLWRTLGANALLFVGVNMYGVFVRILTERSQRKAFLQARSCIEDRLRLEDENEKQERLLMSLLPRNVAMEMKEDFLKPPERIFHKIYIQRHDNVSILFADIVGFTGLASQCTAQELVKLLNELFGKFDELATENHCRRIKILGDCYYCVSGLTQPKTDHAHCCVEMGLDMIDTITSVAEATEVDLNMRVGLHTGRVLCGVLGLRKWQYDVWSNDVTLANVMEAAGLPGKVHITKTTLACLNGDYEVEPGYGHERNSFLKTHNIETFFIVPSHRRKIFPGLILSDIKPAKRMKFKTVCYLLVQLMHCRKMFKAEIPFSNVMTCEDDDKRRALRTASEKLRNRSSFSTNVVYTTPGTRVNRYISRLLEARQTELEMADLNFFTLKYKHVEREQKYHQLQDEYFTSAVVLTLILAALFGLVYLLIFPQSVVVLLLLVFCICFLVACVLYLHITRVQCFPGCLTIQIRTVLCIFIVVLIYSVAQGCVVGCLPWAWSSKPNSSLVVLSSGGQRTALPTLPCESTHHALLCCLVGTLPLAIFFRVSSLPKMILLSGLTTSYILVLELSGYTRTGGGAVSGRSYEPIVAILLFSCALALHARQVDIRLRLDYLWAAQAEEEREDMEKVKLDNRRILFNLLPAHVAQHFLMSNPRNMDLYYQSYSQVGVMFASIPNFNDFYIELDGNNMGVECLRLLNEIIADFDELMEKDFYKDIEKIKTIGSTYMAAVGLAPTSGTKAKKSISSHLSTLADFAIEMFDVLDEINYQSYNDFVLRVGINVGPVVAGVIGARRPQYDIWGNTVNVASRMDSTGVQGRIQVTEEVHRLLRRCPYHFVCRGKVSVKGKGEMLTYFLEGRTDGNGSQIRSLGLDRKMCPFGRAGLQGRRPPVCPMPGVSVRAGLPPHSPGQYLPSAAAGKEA
# ASSAY OVERVIEW: mAC assay, HEK293 cells stably expressing AC1
# Format: cell-based
# RUN PARAMETERS: 30 µM, HEK293-AC1, stimulated with 3 µM A23187, ± S.E.M.

COMPOUND	TARGET OR SYSTEM	% of control AC1 / %
CC(C)OC(=O)[C@H](Cc1ccccc1)NP(=O)(COCC(COC(=O)c1cc(Cl)ccc1N)Cn1cnc2c(N)ncnc21)N[C@@H](Cc1ccccc1)C(=O)OC(C)C (stereo partly drawn) [Compound 26]	mAC1 (Homo sapiens, UniProt Q08828)	94
CC(C)OC(=O)[C@H](Cc1ccccc1)NP(=O)(COCC(Cn1cnc2c(N)ncnc21)NC(=O)c1cc(Cl)ccc1N)N[C@@H](Cc1ccccc1)C(=O)OC(C)C (stereo partly drawn) [Compound 14]	mAC1 (Homo sapiens, UniProt Q08828)	118
CC(C)OC(=O)[C@H](Cc1ccccc1)NP(=O)(COCC(CNC(=O)c1cc(Cl)ccc1N)Cn1cnc2c(N)ncnc21)N[C@@H](Cc1ccccc1)C(=O)OC(C)C (stereo partly drawn) [Compound 29]	mAC1 (Homo sapiens, UniProt Q08828)	189
Nc1ccc(Cl)cc1C(=O)NCC(CO)Cn1cnc2c(N)ncnc21 (stereo not drawn) [Compound 22]	mAC1 (Homo sapiens, UniProt Q08828)	156
Nc1ccc(Cl)cc1C(=O)NC(CO)Cn1cnc2c(N)ncnc21 (stereo not drawn) [Compound 6]	mAC1 (Homo sapiens, UniProt Q08828)	163
Nc1ccc(Cl)cc1C(=O)OCC(CO)Cn1cnc2c(N)ncnc21 (stereo not drawn) [Compound 20]	mAC1 (Homo sapiens, UniProt Q08828)	122

====

# TARGET OR SYSTEM: edema factor (EF) (Bacillus anthracis)
# Sequence (P40136 whole entry, looked up): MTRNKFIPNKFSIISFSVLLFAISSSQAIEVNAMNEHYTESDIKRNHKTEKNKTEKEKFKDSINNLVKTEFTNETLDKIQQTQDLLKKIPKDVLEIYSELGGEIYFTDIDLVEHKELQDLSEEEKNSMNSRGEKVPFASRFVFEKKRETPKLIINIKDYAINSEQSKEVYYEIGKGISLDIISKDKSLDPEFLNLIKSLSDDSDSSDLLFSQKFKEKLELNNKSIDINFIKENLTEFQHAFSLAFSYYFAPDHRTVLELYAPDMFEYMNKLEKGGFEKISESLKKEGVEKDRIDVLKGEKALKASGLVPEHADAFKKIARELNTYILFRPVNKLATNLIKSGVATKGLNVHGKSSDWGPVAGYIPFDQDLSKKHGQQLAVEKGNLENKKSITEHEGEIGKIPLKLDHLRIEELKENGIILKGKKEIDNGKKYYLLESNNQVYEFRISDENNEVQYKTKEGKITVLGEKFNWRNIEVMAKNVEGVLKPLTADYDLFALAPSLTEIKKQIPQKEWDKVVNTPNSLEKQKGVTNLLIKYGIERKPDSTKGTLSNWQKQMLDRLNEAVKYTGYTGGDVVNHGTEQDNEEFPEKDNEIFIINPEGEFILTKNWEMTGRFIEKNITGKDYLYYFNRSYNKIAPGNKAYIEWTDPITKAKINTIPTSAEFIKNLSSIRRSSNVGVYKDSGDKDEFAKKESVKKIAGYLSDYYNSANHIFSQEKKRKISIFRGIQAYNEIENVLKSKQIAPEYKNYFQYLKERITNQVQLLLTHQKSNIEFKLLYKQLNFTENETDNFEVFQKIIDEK
QUANTITY: IC50 (nM)

> print(dat)
                                   compound  value.observed
1  Nc1ncnc2c1ncn2CCOCP(=O)(O)OP(=O)(O)OP(=O)(O)O [PMEApp, Adefovir diphosphate]            11.5

====

# TARGET OR SYSTEM: mAC2 (Homo sapiens, UniProt Q08462)
# Sequence (Q08462 whole entry): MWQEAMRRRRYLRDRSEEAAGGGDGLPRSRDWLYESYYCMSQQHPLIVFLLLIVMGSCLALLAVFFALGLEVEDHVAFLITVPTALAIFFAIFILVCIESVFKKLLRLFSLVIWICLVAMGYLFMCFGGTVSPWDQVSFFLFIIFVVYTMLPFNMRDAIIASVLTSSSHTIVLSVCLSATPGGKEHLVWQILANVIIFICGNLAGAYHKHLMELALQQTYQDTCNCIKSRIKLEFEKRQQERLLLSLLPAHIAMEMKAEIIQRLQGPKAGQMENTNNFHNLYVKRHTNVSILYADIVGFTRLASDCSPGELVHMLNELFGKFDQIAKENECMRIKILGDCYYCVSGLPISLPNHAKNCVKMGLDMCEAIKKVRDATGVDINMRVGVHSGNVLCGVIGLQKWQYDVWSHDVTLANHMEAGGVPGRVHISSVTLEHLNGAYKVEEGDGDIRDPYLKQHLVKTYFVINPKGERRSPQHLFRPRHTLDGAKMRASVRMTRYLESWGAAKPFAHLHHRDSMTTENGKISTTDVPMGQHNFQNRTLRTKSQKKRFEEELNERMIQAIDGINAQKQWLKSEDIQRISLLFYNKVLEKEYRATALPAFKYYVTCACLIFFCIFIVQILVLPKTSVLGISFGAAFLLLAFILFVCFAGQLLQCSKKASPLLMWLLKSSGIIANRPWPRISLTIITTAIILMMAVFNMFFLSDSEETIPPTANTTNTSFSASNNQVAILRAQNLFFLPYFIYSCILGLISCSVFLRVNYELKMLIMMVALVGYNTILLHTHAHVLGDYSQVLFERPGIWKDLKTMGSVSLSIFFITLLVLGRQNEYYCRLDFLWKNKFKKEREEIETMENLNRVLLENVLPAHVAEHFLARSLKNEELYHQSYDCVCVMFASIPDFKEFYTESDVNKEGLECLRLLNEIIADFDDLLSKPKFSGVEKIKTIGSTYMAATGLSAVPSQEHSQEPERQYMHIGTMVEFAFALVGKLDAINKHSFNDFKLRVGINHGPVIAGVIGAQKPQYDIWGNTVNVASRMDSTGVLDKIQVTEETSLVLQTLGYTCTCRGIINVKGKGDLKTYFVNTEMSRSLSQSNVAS
# ASSAY OVERVIEW: mAC assay, HEK293 cells stably expressing AC2
# Format: cell-based
# RUN PARAMETERS: 30 µM, HEK293-AC2, stimulated with 100 nM PMA, ± S.E.M.
QUANTITY: % of control AC2 (%)

COMPOUND	TARGET OR SYSTEM	VALUE OBSERVED
Nc1ccc(Cl)cc1C(=O)OCC(CO)Cn1cnc2c(N)ncnc21 (stereo not shown)	mAC2 (Homo sapiens, UniProt Q08462)	146
Nc1ncnc2c1ncn2C1CCCO1 (stereo not shown) [SQ22536, reference compound]	mAC2 (Homo sapiens, UniProt Q08462)	84
CC(C)OC(=O)[C@H](Cc1ccccc1)NP(=O)(COCC(COC(=O)c1cc(Cl)ccc1N)Cn1cnc2c(N)ncnc21)N[C@@H](Cc1ccccc1)C(=O)OC(C)C (stereo partly shown)	mAC2 (Homo sapiens, UniProt Q08462)	149
Nc1ccc(Cl)cc1C(=O)NCC(CO)Cn1cnc2c(N)ncnc21 (stereo not shown)	mAC2 (Homo sapiens, UniProt Q08462)	149

====

# TARGET OR SYSTEM: mAC2 (Homo sapiens)
# ASSAY OVERVIEW: mAC assay, HEK293 cells stably expressing AC2
# Assay type: cell-based
# RUN PARAMETERS: 30 µM, HEK293-AC2, stimulated with 100 nM PMA, ± S.E.M.
Measured % of control AC2 accompanies every entry in the list below.

COMPOUND	TARGET OR SYSTEM	% of control AC2, %
CC(C)OC(=O)[C@H](Cc1ccccc1)NP(=O)(COCC(CNC(=O)c1cc(Cl)ccc1N)Cn1cnc2c(N)ncnc21)N[C@@H](Cc1ccccc1)C(=O)OC(C)C (stereo partly drawn) [Compound 29]	mAC2 (Homo sapiens)	193
CC(C)OC(=O)[C@H](Cc1ccccc1)NP(=O)(COCC(Cn1cnc2c(N)ncnc21)NC(=O)c1cc(Cl)ccc1N)N[C@@H](Cc1ccccc1)C(=O)OC(C)C (stereo partly drawn) [Compound 14]	mAC2 (Homo sapiens)	172
Nc1ccc(Cl)cc1C(=O)NC(CO)Cn1cnc2c(N)ncnc21 (stereo not drawn) [Compound 6]	mAC2 (Homo sapiens)	161

====

# TARGET OR SYSTEM: B. pertussis ACT (Bordetella pertussis, UniProt P0DKX7)
# ASSAY OVERVIEW: cell-based
# Assay type: cell-based
QUANTITY: IC50

> print(dat)
                                   molecule  quantity  value.observed
1  Nc1ncnc2c1ncn2CC(CO)NC(=O)Nc1ccc(Cl)cc1C(=O)O (stereo not shown) [Compound 7]      IC50         > 15 µM

====

Each entry below lists one item and its recorded % of control AC5 value.
# TARGET OR SYSTEM: mAC5 (Homo sapiens, UniProt O95622)
# Sequence (O95622 whole entry): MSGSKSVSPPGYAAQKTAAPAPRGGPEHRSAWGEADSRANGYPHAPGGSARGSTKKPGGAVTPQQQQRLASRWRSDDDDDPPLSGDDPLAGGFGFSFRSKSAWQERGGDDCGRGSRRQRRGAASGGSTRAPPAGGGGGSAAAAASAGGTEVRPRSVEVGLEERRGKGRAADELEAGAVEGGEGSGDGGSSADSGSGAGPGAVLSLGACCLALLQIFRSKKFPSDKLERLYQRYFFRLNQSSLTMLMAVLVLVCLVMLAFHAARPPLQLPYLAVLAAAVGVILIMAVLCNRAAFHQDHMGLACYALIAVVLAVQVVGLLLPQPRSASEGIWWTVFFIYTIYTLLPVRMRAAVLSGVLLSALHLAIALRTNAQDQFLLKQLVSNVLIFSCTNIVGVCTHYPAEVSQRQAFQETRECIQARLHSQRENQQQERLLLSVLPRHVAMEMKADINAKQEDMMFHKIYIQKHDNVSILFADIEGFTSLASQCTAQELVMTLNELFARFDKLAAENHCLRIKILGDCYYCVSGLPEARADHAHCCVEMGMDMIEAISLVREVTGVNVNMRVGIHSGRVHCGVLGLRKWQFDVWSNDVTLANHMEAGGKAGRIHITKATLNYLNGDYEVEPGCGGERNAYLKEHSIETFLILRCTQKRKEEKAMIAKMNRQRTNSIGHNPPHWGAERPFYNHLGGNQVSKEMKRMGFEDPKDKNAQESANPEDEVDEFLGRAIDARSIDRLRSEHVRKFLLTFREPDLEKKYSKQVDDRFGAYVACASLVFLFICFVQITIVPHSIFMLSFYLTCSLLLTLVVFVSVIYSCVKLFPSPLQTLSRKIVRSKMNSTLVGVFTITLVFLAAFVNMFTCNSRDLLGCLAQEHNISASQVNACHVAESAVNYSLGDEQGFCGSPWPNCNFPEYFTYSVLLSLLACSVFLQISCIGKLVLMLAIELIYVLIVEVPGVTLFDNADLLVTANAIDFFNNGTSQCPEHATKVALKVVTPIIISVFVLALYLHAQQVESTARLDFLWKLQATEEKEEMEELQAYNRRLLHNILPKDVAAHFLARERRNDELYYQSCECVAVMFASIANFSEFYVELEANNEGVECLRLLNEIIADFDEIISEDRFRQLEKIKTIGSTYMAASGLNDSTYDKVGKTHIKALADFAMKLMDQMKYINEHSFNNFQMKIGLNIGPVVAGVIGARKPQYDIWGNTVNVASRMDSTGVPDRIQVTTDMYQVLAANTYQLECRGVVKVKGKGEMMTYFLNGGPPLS
# ASSAY OVERVIEW: mAC assay, HEK293 cells stably expressing AC5
# Type: cell-based
# RUN PARAMETERS: 30 µM, HEK293-AC5, stimulated with 300 nM forskolin, ± S.E.M.
QUANTITY: % of control AC5 (%)

COMPOUND	TARGET OR SYSTEM	MEASURE UNIT	VALUE OBSERVED
Nc1ccc(Cl)cc1C(=O)NC(CO)Cn1cnc2c(N)ncnc21 (stereo not shown) [Compound 6]	mAC5 (Homo sapiens, UniProt O95622)	%	98
CC(C)OC(=O)[C@H](Cc1ccccc1)NP(=O)(COCC(Cn1cnc2c(N)ncnc21)NC(=O)c1cc(Cl)ccc1N)N[C@@H](Cc1ccccc1)C(=O)OC(C)C (stereo partly shown) [Compound 14]	mAC5 (Homo sapiens, UniProt O95622)	%	121
Nc1ccc(Cl)cc1C(=O)NCC(CO)Cn1cnc2c(N)ncnc21 (stereo not shown) [Compound 22]	mAC5 (Homo sapiens, UniProt O95622)	%	101
CC(C)OC(=O)[C@H](Cc1ccccc1)NP(=O)(COCC(COC(=O)c1cc(Cl)ccc1N)Cn1cnc2c(N)ncnc21)N[C@@H](Cc1ccccc1)C(=O)OC(C)C (stereo partly shown) [Compound 26]	mAC5 (Homo sapiens, UniProt O95622)	%	97
CC(C)OC(=O)[C@H](Cc1ccccc1)NP(=O)(COCC(CNC(=O)c1cc(Cl)ccc1N)Cn1cnc2c(N)ncnc21)N[C@@H](Cc1ccccc1)C(=O)OC(C)C (stereo partly shown) [Compound 29]	mAC5 (Homo sapiens, UniProt O95622)	%	118
Nc1ncnc2c1ncn2C1CCCO1 (stereo not shown) [SQ22536, reference compound]	mAC5 (Homo sapiens, UniProt O95622)	%	64
Nc1ccc(Cl)cc1C(=O)OCC(CO)Cn1cnc2c(N)ncnc21 (stereo not shown) [Compound 20]	mAC5 (Homo sapiens, UniProt O95622)	%	114
